log10(fluorescence lifetime) values, listed per item
Test: solvent given as SMILES
Settings: in CC#N
Field: value | Transform: log10 | Quantity: fluorescence lifetime | Unit: ns

Check out these entries, answers already filled in.
COMPOUND	EXPERIMENTAL_RESULT
Cc1cc(C(F)(F)F)nc2c1ccc1nc(-c3ccc(Cl)cc3)cn12	0.91
COc1ccc(-c2cc(-c3ccc(C)cc3)nc3c(C#N)c(N4CCCC4)nc(N)c23)cc1	1.07
N#Cc1ccc(C[C@H](N)C(=O)O)cc1	0.57
CC(=O)Nc1ccccc1C(=O)OC1CC(C)CCC1C(C)C (configuration not stated)	0.53
COc1cc2[nH]c3c(c2cc1OCC(=O)O)CCCC3=O	-0.20
CN(C)c1ccc(C(=O)c2ccccc2)cc1	-0.80

stdin: Any idea what log10(fluorescence lifetime) was measured for Cc1ccc2nc3c(nc2c1)c(-c1ccccc1)nn3C ?
stdout: 1.30

stdin: What would you report for COc1ccc(C#Cc2ccccc2C#Cc2ccc(OC)cc2)cc1 ?
stdout: 0.33

stdin: What would you report for CC1(C)CC(/N=C/c2ccc3ccc4cccc5ccc2c3c45)CC(C)(C)N1 ?
stdout: 0.46

stdin: What would you report for COc1ccc2cc3c(C)cc(=O)oc3cc2c1 ?
stdout: -0.46

stdin: What would you report for Cc1ccc(-n2c(C)ccc2C)cc1 ?
stdout: 0.64

stdin: What would you report for Cc1cccc(Nc2ccccc2C(=O)O)c1C ?
stdout: -0.25

----------
log10(fluorescence lifetime) values, listed per item
Assay: solvent given as SMILES
Details: in CCCCCC
Field: value | Transform: log10 | Quantity: fluorescence lifetime | Unit: ns

Check out these entries, answers already filled in.
MOLECULE	log10(fluorescence lifetime)
CCCCCCCCN1c2ccc(C#Cc3ccc(C(F)(F)F)cc3)cc2Sc2cc(C=O)ccc21	0.81
N#Cc1ccc2c(c1)CCc1nc(-c3ccc([N+](=O)[O-])cc3)c3c(c1-2)CCc1cc(C#N)ccc1-3	-0.19
CCC1(CC)c2cc(-c3ccc4c(c3)C(CC)(CC)c3cc(C(C)(C)C)ccc3-4)ccc2-c2ccc(-c3ccc4c(c3)C(CC)(CC)c3cc(C(C)(C)C)ccc3-4)cc21	-0.17
O=S(=O)(/N=c1\oc2cccc3c4c(-c5ccccc5)oc5cccc(c(c1-c1ccccc1)c23)c54)C(F)(F)F	0.58
COc1ccc(-c2nc3c(c4c2-c2ccccc2CC4)-c2ccccc2CC3)cc1	-0.35

stdin: Any idea what log10(fluorescence lifetime) was measured for c1ccc(N2c3ccc4ccccc4c3-c3c4ccccc4nc[n+]3[B-]2(c2ccccc2)c2ccccc2)cc1 ?
stdout: 0.53

stdin: What would you report for F[B-]1(F)n2cccc2C=C2C=CC=[N+]21 ?
stdout: 0.83

stdin: What would you report for CCCCCC(=O)c1c2c(c(C(=O)CCCCC)c3c1OC1(CCCC1)O3)OC1(CCCC1)O2 ?
stdout: 1.18

----------
Test: solvent given as SMILES
Conditions: in CC#N
ASSAY_ENDPOINT: log10(fluorescence lifetime) (log10 of the value in ns)
Field: value | Transform: log10 | Quantity: fluorescence lifetime | Unit: ns

COMPOUND	log10(fluorescence lifetime)
CC(=O)c1nc(-c2ccc(N(C)C)cc2)oc1C	0.28
COc1c2ccccc2c(OC)c2c1c1c(C)ccc(OC)c1n2C	1.38
COc1ccc(/C=C/c2nc3c4ccccc4c4ccccc4c3o2)cc1	-0.01

stdin: Any idea what log10(fluorescence lifetime) was measured for CCN(CC)c1ccc(/N=N/c2nc3ccc(Br)cc3s2)cc1 ?
stdout: 0.48

stdin: What would you report for COc1ccc2nc(/N=N/c3ccc(N(C)C)cc3)sc2c1 ?
stdout: 0.69

stdin: What would you report for Cc1ccc(C2=[N+]3C(=Cc4c(C)cc(C)n4[B-]3(F)F)c3ccccc32)[nH]1 ?
stdout: 0.80

stdin: What would you report for COc1cc(/C=C/c2ccccc2)cc(OC)c1 ?
stdout: 1.23

stdin: What would you report for CN(C)c1ccc(/C=C2\CC/C(=C\c3ccc(C#N)cc3)C2=O)cc1 ?
stdout: -0.77

stdin: What would you report for c1ccc2c(c1)ncc1ccc3cnc4ccccc4c3c12 ?
stdout: 0.80

stdin: What would you report for Cc1c2oc3c(C)c(N)cc(C(=O)NC4OC(=O)C(C(C)C)N(C)C(=O)CN(C)C(=O)C5CCCN5C(=O)C(C(C)C)NC4=O)c3nc-2c(C(=O)NC2OC(=O)C(C(C)C)N(C)C(=O)CN(C)C(=O)C3CCCN3C(=O)C(C(C)C)NC2=O)c(N)c1=O (configuration not stated) ?
stdout: 0.19

stdin: What would you report for COc1cc2c(cc1/C=C/C(=C(C#N)C#N)c1ccccc1)c1ccccc1n2C ?
stdout: 0.88

stdin: What would you report for N#C/C(=C\c1ccncc1)c1nc(-c2ccccc2)cs1 ?
stdout: 0.69

stdin: What would you report for O=C1O[B-]2(OC1=O)OC(c1ccc3ccccc3c1)=CC(c1ccc3ccccc3c1)=[O+]2 ?
stdout: 0.66

stdin: What would you report for Fc1ccc(-[c+]2c3ccccc3oc3ccccc32)cc1 ?
stdout: 1.27

stdin: What would you report for Cc1ccc(C(=O)NN2C3=C(CC4=C2CCCC4=O)C(=O)CCC3)cc1 ?
stdout: 0.77

stdin: What would you report for COc1ccc2cc(/C=C/c3ccc([N+](=O)[O-])cc3)c(=O)oc2c1 ?
stdout: 0.09

stdin: What would you report for CCNc1ccc2c(C(F)(F)F)cc(=O)oc2c1 ?
stdout: 0.72

stdin: What would you report for Cc1ccc(C2=C3C=CC=[N+]3[B-](F)(F)n3cccc32)cc1 ?
stdout: -0.71
